Molecular target: T1, ECF28_1088
T1 chain: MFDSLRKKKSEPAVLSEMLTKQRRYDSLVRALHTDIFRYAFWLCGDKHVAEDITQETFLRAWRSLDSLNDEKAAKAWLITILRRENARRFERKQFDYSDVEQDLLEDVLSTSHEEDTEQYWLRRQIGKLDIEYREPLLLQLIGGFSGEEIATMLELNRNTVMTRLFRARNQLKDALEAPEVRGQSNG
propertyMeasured: fold repression

binder	propertyMeasured	reportedMeasurement
AS16_3622 (protein) MMKTDELISLLATAEGPVDRHALARRLGLALLAGLLGALLLTVALYGVRSDLAEVARTPLFWAKVALPTSLALLGLWLTQRLARPGVRGGALWGLLGVPLLLVWLGAAISLFGAPPEARADLIFGRTWRTCALNITLLSTPVFIAVFWALRGLAPTRLRQAGAAGGLLAGSTATLVYCLHCPEMGVPFWGLWYLLGMLVPTLLGAVLGPRLLRW	fold repression	2.18
AS25_1643_cl43 (protein) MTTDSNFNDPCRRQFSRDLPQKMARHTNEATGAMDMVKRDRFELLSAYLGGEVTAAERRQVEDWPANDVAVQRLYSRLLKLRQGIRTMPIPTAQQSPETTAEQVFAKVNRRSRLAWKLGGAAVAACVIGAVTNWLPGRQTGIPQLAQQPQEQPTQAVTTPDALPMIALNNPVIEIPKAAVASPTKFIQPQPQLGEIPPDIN	fold repression	1.48
AS14_1324 (protein) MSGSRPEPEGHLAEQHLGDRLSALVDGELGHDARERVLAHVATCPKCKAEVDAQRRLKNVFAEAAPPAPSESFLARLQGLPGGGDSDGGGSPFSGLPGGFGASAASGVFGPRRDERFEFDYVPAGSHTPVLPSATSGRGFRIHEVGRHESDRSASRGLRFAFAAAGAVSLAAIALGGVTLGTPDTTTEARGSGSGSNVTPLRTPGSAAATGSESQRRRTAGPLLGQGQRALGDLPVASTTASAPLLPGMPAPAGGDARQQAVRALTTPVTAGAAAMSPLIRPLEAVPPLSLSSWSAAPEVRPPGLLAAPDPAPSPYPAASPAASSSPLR	fold repression	3.46
AS33_375 (protein) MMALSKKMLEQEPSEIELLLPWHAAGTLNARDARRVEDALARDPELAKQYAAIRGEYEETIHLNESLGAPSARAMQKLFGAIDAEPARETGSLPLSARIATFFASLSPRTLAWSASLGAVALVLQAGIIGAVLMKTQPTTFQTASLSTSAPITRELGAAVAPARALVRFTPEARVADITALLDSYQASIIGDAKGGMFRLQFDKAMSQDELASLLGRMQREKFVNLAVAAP	fold repression	3.72
AS22_1147 (protein) MELDDIAVAWRSLEQRLDQHAALAGQVLGDLRSHAARAHLRPLWLSQSAQLLCAIALSGLVAHSWLAFPEQAAAIVGGVLLQIWCVALAASAARQLWLLSQLDFARPLLQTQRALAQLRRWRTRVAPWLGVAFWVLWVAVADAAWRALTGRSLPYAWLLCNLLVGVLGGIGTWLGYRRLQRSGHPWLERLDTVHAGRSVARTETLLEQIARFQRE	fold repression	2.19
